Values were extracted from PubChem BioAssay AID1159580.

- Assay method text: chemical genetic growth profiling, strain panel (AID 1159580);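 note: tested at 20 µM; growth read once vehicle control cultures reached saturation at 30 °C; 1 = growth at the plate median or of vehicle wells; lower values mean less growth of the strain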
- Experimental setup: S. cerevisiae deletion strains, growth OD, locus YNL153C, strain GIM3, active compounds read low
Hit rate of the full screen: of about 5,500 compounds, about 2,000 (36%) were called active. Another 18% or so got no clear call; they are omitted. The list shows a part of the results.
Observable: normalized growth

* CC(OCc1ccccc1)C(NC(=O)OC(C)(C)C)C(N)=O (configuration not stated) | 0.998
* Cc1cc(O)cc(C)c1Cl | 1.02
* N=C(N)c1ccc(N)cc1 | 1
* Cc1c(S(=O)(=O)c2ccc(Cl)cc2)cnc2cc(C(C)(C)C)nn12 | 1
* NC(Cc1c[nH]c2ccccc12)C(=O)O (configuration not stated) | 0.992
* NCCC(=O)N[C@@H](Cc1cnc[nH]1)C(=O)O | 1.02
* N=C(N)SCCc1ccc(CCSC(=N)N)cc1 | 0.964
* NC(N)=NN=Cc1c(Cl)cccc1Cl | 0.999
* C[C@@H]1CC[C@H]2[C@@H](C)C(=O)O[C@@H]3O[C@@]4(C)CC[C@@H]1[C@]32OO4 | 0.811
* COc1ccc2[nH]c3c(c2c1)CCNC3 | 0.983
* O=C1C(O)=C(O)C(=O)C(O)=C1O | 0.956
* OC(CCN1CCCCC1)(c1ccccc1)C1CCCCC1 (configuration not stated) | 1
* CC(=O)Nc1c(C)c(C)c(C)c(C)c1NC(C)=O | 0.995
* CCOP(=S)(OCC)Oc1cc(C)nc(C(C)C)n1 | 0.984
* CNC(=O)Oc1ccc2c(c1)C1(C)CCN(C)C1N2C (configuration not stated) | 1
* CN1C2CCC1CC(NC(=O)c1nn(C)c3ccccc13)C2 (configuration not stated) | 0.999
* COc1cc(C(=O)O[C@H]2CC[C@@]3(C)[C@@H]4CC[C@H]5[C@]6(O)C[C@H](O)[C@@]7(O)[C@@H](CN8C[C@@H](C)CC[C@H]8[C@@]7(C)O)[C@]6(O)C[C@@]53O[C@]24O)cc(OC)c1OC | 1.01
* COc1cccc(-c2nc(C#N)c(N)o2)c1 | 0.987
* CC(=O)NCc1c(I)c(NC(C)=O)c(I)c(C(=O)O)c1I | 0.999
* O=C(COc1ccc2c(c1)OCO2)N1CCN(c2ncc(C(F)(F)F)cc2Cl)CC1 | 0.978
* O=[N+]([O-])c1cc(Cl)ccc1S(=O)(=O)c1ccccc1 | 0.985
* Cc1cc(O)ccc1Cl | 1.03
* CCOC(=O)c1sc(-c2ccc(C)cc2)nc1O | 0.301
* CN=c1nc(-c2ccccc2)n(-c2ccccc2)s1 | 0.905
* CS/C(N)=N\N=C/c1c(F)cccc1Cl | 0.998
* CC(C)(C)OC(=O)C(C)(C)S(=O)(=O)c1ccc(Cl)cc1 | 0.98
* CSC(=CC(=O)c1ccc(Cl)cc1)SC | 0.879
* Nc1c2ccccc2nc2ccccc12 | 0.713
* N=C(N)SCCN | 1
* Nc1ccc(S(=O)(=O)c2ccc(N)cc2)cc1 | 1.01
* NN=C(N)N | 1.01
* Cc1ccc2[nH]c3c(c2c1)CCCC3 | 0.807
* CC1=CCC2C3(C)C1=CC(=O)OC3CC1C(C)(C)CC(O)C(O)C12C (configuration not stated) | 1.01
* CCOC(=O)c1nc(-c2ccccc2)sc1C(=O)OCC | 0.995
* CNC(=O)O/N=C\C(C)(C)SC | 1
* CCOP(=S)(OCC)Oc1nc(Cl)c(Cl)cc1Cl | 1.01
* N#CC(C#N)=CNc1cccc(N)n1 | 1.02
* CC(C)(C)c1nccc(-c2nn(-c3ccc(F)cc3)ccc2=O)n1 | 1.02
* CCC(C)C(=O)O[C@H]1[C@H](O)C2C(CN3CC(C)CCC3[C@@]2(C)O)C2C[C@]34O[C@]5(O)C(OC(=O)C(C)(O)CC)CC[C@@]3(C)C5C(OC(C)=O)[C@@H](OC(C)=O)C4[C@@]21O (some centres not stated) | 1.01
* Cc1ccc(S(=O)(=O)NC(=O)NN2CC3CCCC3C2)cc1 (configuration not stated) | 1
* COc1c(CC(=O)c2cc3c(cc2O)OC(C)(C)C(O)C3)ccc2c1C=CC(C)(C)O2 (configuration not stated) | 1.06
* C[C@@H]1CC[C@H]2[C@@H](C)C(O)O[C@@H]3O[C@@]4(C)CC[C@@H]1[C@]32OO4 (some centres not stated) | 0.285
* CC12CCC3C4CCC(=O)C=C4CCC3C1CCC2=O (configuration not stated) | 0.991
* COc1ccc(NC(=O)C(C)c2ccc(CC(C)C)cc2)cc1 (configuration not stated) | 0.932
* C[C@]12CCC(=O)C=C1CCC1C2[C@@H](O)C[C@@]2(C)C1CC[C@]2(O)C(=O)CO (some centres not stated) | 1.03
* Cc1nc(-c2nnc(Sc3ccc(C(F)(F)F)cc3[N+](=O)[O-])n2C)cs1 | 0.998
* CC(=O)/C=C\[C@@H]1[C@@]2(C)CCCC(C)(C)C2CC[C@@]1(C)O (some centres not stated) | 0.951

---

- Assay method text: chemical genetic growth profiling, strain panel (AID 1159580);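 note: tested at 20 µM; growth read once vehicle control cultures reached saturation at 30 °C; 1 = growth at the plate median or of vehicle wells; lower values mean less growth of the strain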
- Experimental setup: S. cerevisiae deletion strains, growth OD, locus YDR226W, strain ADK1, active compounds read low
Among all 5,500 compounds or so, about 2,000 (36%) were called active. Not shown: some 18% with an inconclusive outcome. Some of the results follow.
# normalized growth listing for each entry below
Observable: normalized growth

- Fc1ccc(NC(=S)N2CCCN(Cc3ccc(Cl)cc3Cl)CC2)cc1: 0.973
- CSc1n[nH]c(-c2cc(C(F)(F)F)cc(C(F)(F)F)c2)n1: 0.942
- Cc1nc(-c2ccccn2)nc(N(C)Cc2ccccc2)c1Cl: 0.956
- Fc1cccc(Cl)c1CSc1n[nH]c(-c2cc(C(F)(F)F)cc(C(F)(F)F)c2)n1: 0.971
- Cc1nc(-c2ccccn2)nc(SCc2ccccc2)c1Cl: 0.942
- Nc1ccc(Sc2ccccc2)nc1Sc1ccccc1: 0.957

---

- Assay method text: chemical genetic growth profiling, strain panel (AID 1159580);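 note: tested at 20 µM; growth read once vehicle control cultures reached saturation at 30 °C; 1 = growth at the plate median or of vehicle wells; lower values mean less growth of the strain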
- Experimental setup: S. cerevisiae deletion strains, growth OD, locus YKR001C, strain vps1
In all, about 5,500 compounds went through this assay and about 2,000 (36%) were called active. Another 18% or so got no clear call; they are omitted. Rule as the data show it: active = normalized growth mostly below about 0.91 (no sharp cut-off); inconclusive = no clear call, values can overlap the other calls; inactive = mostly above about 0.92. The list shows a part of the results. Where a SMILES comes first, the peptide text is derived from it. Bridges are numbered along the chain shown (N, C = ends). [ ]: non-standard residue; d: D form. The star is where a group is joined. ξ: configuration not given here. ξDab(CH2SO3H) = NC(CCNCS(=O)(=O)O)C(=O)O; Heptanoyl(6-Me) = CC(C)CCCCC(=O)*; Dab = NCC[CH](N)C(=O)O
Classes used: active, inactive

- CC(=O)OC1CC(OC(C)=O)C2(C)C(CC(OC(C)=O)C3(C)C4=CC(=O)OC(=O)C4(C)CCC32)C1(C)C (configuration not stated): inactive
- Fc1ccc(C(c2ccccc2)(c2ccccc2F)n2ccnc2)cc1 (configuration not stated): active
- CC(=O)NC(C(=O)O)C(C)(C)SN=O (configuration not stated): inactive
- COc1ccc2c3c([nH]c2c1)C(C)=NCC3: inactive
- C[C@@H]1CC[C@H]2[C@@H](C)C(O)O[C@@H]3O[C@@]4(C)CC[C@@H]1[C@]32OO4 (some centres not stated): active
- OC(CCN1CCCCC1)(c1ccccc1)C1CCCCC1 (configuration not stated): inactive
- O=c1cc(CO)occ1O: inactive
- CCC(C)C1NC(=O)C(CCNCS(=O)(=O)O)NC(=O)C(NC(=O)C(CCNCS(=O)(=O)O)NC(=O)C(NC(=O)C(CCNCS(=O)(=O)O)NC(=O)CCCCC(C)C)C(C)O)CCNC(=O)C(C(C)O)NC(=O)C(CCNCS(=O)(=O)O)NC(=O)C(CCNCS(=O)(=O)O)NC(=O)C(C(C)CC)NC1=O (configuration not stated) ({Heptanoyl(6-Me)}-[ξDab(CH2SO3H)]T[ξDab(CH2SO3H)][Dab][ξDab(CH2SO3H)]II[ξDab(CH2SO3H)][ξDab(CH2SO3H)]T; lactam 4-C; configuration not given here): inactive
- C[C@@H]1OC(O[C@H]2C(O[C@H]3CC[C@@]4(C)C(CC[C@]5(C)C4CC=C4C6CC(C)(C)CC[C@]6(C(=O)O)CC[C@]45C)[C@]3(C)CO)OC[C@H](O)[C@@H]2O)[C@H](O)[C@H](O)[C@H]1O (some centres not stated): active
- NNC(=O)c1ccncc1: inactive
- Cc1cc(O)c2c(c1)Cc1cccc(O)c1C2=O: active
- C#C[C@]1(OC(C)=O)CCC2C3CCC4=CC(=O)CC[C@@H]4C3CC[C@@]21C (some centres not stated): inactive
- CCOC(=O)OC(C)OC(=O)C1N2C(=O)C(NC(=O)[C@H](N)c3ccccc3)C2SC1(C)C (some centres not stated): inactive
- CC1=CCC2C3(C)C1=CC(=O)OC3CC1C(C)(C)CC(O)C(O)C12C (configuration not stated): inactive
- COC1=C[C@@H]2[C@@H]3Cc4ccc(OC)c(O)c4[C@]2(CCN3C)CC1=O: inactive
- O=C(COc1ccc(Cl)cc1)N1CCN(Cc2ccc3c(c2)OCO3)CC1: inactive
- CNC(=O)O/N=C\C(C)(C)SC: inactive
- Nc1ccc(S(=O)(=O)c2ccc(N)cc2)cc1: inactive
- CC(C)(C#N)O[C@@H]1O[C@H](CO)[C@@H](O)[C@H](O)[C@H]1O: inactive
- CC(=O)O[C@H]1CC[C@@]2(C)C(CC[C@]3(C)C2CC=C2C4CC(C)(C)CC[C@]4(C)CC[C@]23C)C1(C)C (some centres not stated): inactive
- O=C1c2c(O)cccc2Cc2cccc(O)c21: inactive
- NCCC(=O)N[C@@H](Cc1cnc[nH]1)C(=O)O: inactive
- C[C@]12CCC(=O)C=C1CCC1C2[C@@H](O)C[C@@]2(C)C1CC[C@]2(O)C(=O)CO (some centres not stated): inactive
- Nc1c2ccccc2nc2ccccc12: active
- NC(N)=N/N=C/c1c(Cl)cccc1Cl: inactive
- CC(=O)O[C@H]1CC[C@@]2(C)C(CC[C@]3(C)C2C(=O)C=C2C4[C@@H](C)[C@H](C)CC[C@]4(C(=O)O)CC[C@]23C)C1(C)C (some centres not stated): inactive
- COc1ccc2c(c1)c(CC(=O)OCC(=O)O)c(C)n2C(=O)c1ccc(Cl)cc1: inactive
- CNCc1ccccc1: inactive
- COC(=O)/C(C)=C\CC12OC(C)(C)C3CC(C=C4C(=O)c5c(O)c6c(c(CCC(C)(C)Cl)c5OC431)OC1(C)CCC(=C(C)C)C6C1)C2=O (configuration not stated): inactive
- C#C[C@]1(O)CCC2C3CCC4=CC(=O)CC[C@@H]4C3CC[C@@]21CC (some centres not stated): inactive
- CC(=O)O[C@@H]1CC[C@@]2(C)C(CC[C@]3(C)C2CC=C2C4CC(C)(C)CC[C@]4(C(=O)O)CC[C@]23C)C1(C)C (some centres not stated): inactive
- Nc1c2ccccc2nc2ccccc12 (tested in a mixture with another compound): active
- N[C@H](C(=O)O)[C@@H]1CC(Cl)=NO1: active
- COc1cc(N)c(Cl)cc1C(=O)NC1CCN(Cc2ccccc2)CC1: inactive
- C=C/C(C)=C\CC1C(C)(O)CCC2C(C)(C)CCCC21C (configuration not stated): active
- C[C@@H]1C(=O)O[C@H]2[C@H]1CC[C@@]1(C)C=CC(=O)[C@@]3(C)O[C@@]213: inactive
- Nc1ccc(S(=O)(=O)Nc2cnc3ccccc3n2)cc1: inactive
